Source of measurements: the Immune Epitope Database (IEDB)

List of Kd values.
tested target: HLA-A*23:01
experiment notes: IEDB peptide-MHC binding, purified MHC/competitive/radioactivity; filed as Kd, often an IC50 or EC50 that approximates it; bounds were set here for any values at or beyond the usual limits of such assays
reported conditions: source organism: SARS coronavirus Tor2

Enquiry: Can you share its Kd? I mean this sequence: `SASKSASVY`
Return: ≥ 77.8 µM

Enquiry: `SSLPSYAAY` ?
Return: ≥ 77.8 µM

Enquiry: `VIEGPTTCGY` ?
Return: ≥ 38.1 µM

Enquiry: `FNAPALQEAY` ?
Return: ≥ 70 µM

Enquiry: `TEETFKLSY` ?
Return: ≥ 62.8 µM

Continuing:
Enquiry: Can you share its Kd? I mean this sequence: `EYISDAFSL`
Return: ≥ 64.6 µM

====

tested target: HLA-A*33:01
experiment notes: IEDB peptide-MHC binding, purified MHC/competitive/radioactivity; filed as Kd, often an IC50 or EC50 that approximates it; bounds were set here for any values at or beyond the usual limits of such assays
reported conditions: source organism: Vaccinia virus WR
List of pKd values.
Note on units: pKd is unitless, being -log10 of a concentration expressed in mol/L.

The following sequences have reported results that may help.
Enquiry: Can you share its pKd? I mean this sequence: `VIEDITFLR`
Return: 6.38

Enquiry: `DLVKSSFVK` ?
Return: 6.04

Enquiry: `LSSKGLACYR` ?
Return: 7.33

Continuing:
Enquiry: Can you share its pKd? I mean this sequence: `ESMASLKSLY`
Return: 4.80

Enquiry: `RQTVSRFKK` ?
Return: 5.18

====

List of log10 of Kd values.
tested target: HLA-A*68:01
experiment notes: IEDB peptide-MHC binding, purified MHC/competitive/radioactivity; filed as Kd, often an IC50 or EC50 that approximates it; bounds were set here for any values at or beyond the usual limits of such assays
reported conditions: source organism: Vaccinia virus WR
Heads up: the numbers are on a log10 scale; they represent Kd in nM.

The following sequences have reported results that may help.
Enquiry: # get_value(readout= log10 of Kd, system= HLA-A*68:01) for `NFPQHVITK`
Return: 3.10

Enquiry: `FSNTILLSDK` ?
Return: 2.00

Enquiry: `VSIILANER` ?
Return: 0.93

Enquiry: `HLKVALYRR` ?
Return: 1.83

Continuing:
Enquiry: # get_value(readout= log10 of Kd, system= HLA-A*68:01) for `AVRYYDGNIY`
Return: 3.48

Enquiry: `IIVNNQESNK` ?
Return: 3.51

Enquiry: `LFVKKMLPK` ?
Return: 2.67

Enquiry: `YANLDDVYSY` ?
Return: 3.22

Enquiry: `RQTVSRFKK` ?
Return: 3.67

====

List of Kd values.
tested target: HLA-A*31:01
experiment notes: IEDB peptide-MHC binding, purified MHC/competitive/radioactivity; filed as Kd, often an IC50 or EC50 that approximates it; bounds were set here for any values at or beyond the usual limits of such assays
reported conditions: source organism: Vaccinia virus WR

The following sequences have reported results that may help.
Enquiry: # get_value(readout= Kd, system= HLA-A*31:01) for `IICEDAMYY`
Return: ≥ 61.4 µM

Enquiry: `SIFPANINDK` ?
Return: ≥ 70 µM

Proceeding to the next sequence to report its Kd.
Enquiry: # get_value(readout= Kd, system= HLA-A*31:01) for `AVRYYDGNIY`
Return: ≥ 70 µM

====

tested target: HLA-A*33:01
experiment notes: IEDB peptide-MHC binding, purified MHC/competitive/radioactivity; filed as Kd, often an IC50 or EC50 that approximates it; bounds were set here for any values at or beyond the usual limits of such assays
reported conditions: source organism: Vaccinia virus WR
List of Kd values.
# unit: µM | format: bare number

The following sequences have reported results that may help.
Enquiry: Can you share its Kd? I mean this sequence: `VSIILANER`
Return: 7.69

Enquiry: `FSKSTSPTR` ?
Return: 0.387

Enquiry: `TVLGLGLSLK` ?
Return: 14.4

Enquiry: `CAGVIEYAK` ?
Return: 1.19

Enquiry: `FINFFNLLAK` ?
Return: 0.427

Continuing:
Enquiry: Can you share its Kd? I mean this sequence: `SAKQLRTRIR`
Return: 17.3

Enquiry: `QMLTSGEYK` ?
Return: 7.28

Enquiry: `SMNVAVIDK` ?
Return: 7.08

Enquiry: `EILKINSVK` ?
Return: 0.549

Enquiry: `NVISSKISY` ?
Return: 6.45

====

tested target: HLA-A*68:01
experiment notes: IEDB peptide-MHC binding, purified MHC/competitive/radioactivity; filed as Kd, often an IC50 or EC50 that approximates it; bounds were set here for any values at or beyond the usual limits of such assays
reported conditions: source organism: Vaccinia virus WR
measured quantity: Kd (nM)
# unit: nM | format: bare number

Enquiry: Can you share its Kd? I mean this sequence: `YLTMKAIEK`
Return: 1010

Continuing:
Enquiry: Can you share its Kd? I mean this sequence: `TLDQLEDSEY`
Return: 4070

Enquiry: `ETKITFALKK` ?
Return: 74.8

Enquiry: `SMNVAVIDK` ?
Return: 4880

Enquiry: `FINFFNLLAK` ?
Return: 6.53

Enquiry: `LSSKGLACYR` ?
Return: 4.75

Enquiry: `NVISSKISY` ?
Return: 439

Enquiry: `ILSYIYSEIK` ?
Return: 1240

Enquiry: `QTCAGVIEY` ?
Return: 1760

Enquiry: `QAIEPSGNNY` ?
Return: 692

Enquiry: `PLYIDISDVK` ?
Return: 1420

Enquiry: `DLVKSSFVK` ?
Return: 77

Enquiry: `QIFEVYWYL` ?
Return: 873

Enquiry: `EILKINSVK` ?
Return: 2.64

====

List of pKd values.
tested target: HLA-A*33:01
experiment notes: IEDB peptide-MHC binding, purified MHC/competitive/radioactivity; filed as Kd, often an IC50 or EC50 that approximates it; bounds were set here for any values at or beyond the usual limits of such assays
reported conditions: source organism: Vaccinia virus WR
pKd: −log10 of the molar value.

Enquiry: Can you share its pKd? I mean this sequence: `ILHAYCGIK`
Return: ≤ 4.47

Enquiry: `FVKKFGLCNY` ?
Return: ≤ 4.35

Continuing:
Enquiry: Can you share its pKd? I mean this sequence: `TLDQLEDSEY`
Return: ≤ 4.39

Enquiry: `QTCAGVIEY` ?
Return: ≤ 4.11

Enquiry: `ILSYIYSEIK` ?
Return: ≤ 4.15

====

tested target: HLA-A*68:01
experiment notes: IEDB peptide-MHC binding, purified MHC/competitive/radioactivity; filed as Kd, often an IC50 or EC50 that approximates it; bounds were set here for any values at or beyond the usual limits of such assays
reported conditions: source organism: Vaccinia virus WR
List of Kd values.

The following sequences have reported results that may help.
Enquiry: Can you share its Kd? I mean this sequence: `SAKQLRTRIR`
Return: ≥ 28.8 µM

Enquiry: `KSDAKRNSK` ?
Return: ≥ 77.7 µM

Proceeding to the next sequence to report its Kd.
Enquiry: Can you share its Kd? I mean this sequence: `FVKKFGLCNY`
Return: ≥ 37.1 µM
